- Test system: CCRF-CEM leukemia
- TEST_PROTOCOL: NCI-60 one-dose screen, 48 h (100 = growth as untreated, 0 = no growth, -100 = all killed)
- CONDITION_PARAMETERS: 10 µM
This is part of a sample that, as a whole, favours compounds with a hit. Of some 83,000 tested, about 20% had one in any assay.
Would you kindly list growth for each of these compounds?
One number for each entry, in %.

Reference set, count: 5
INSERT INTO measurements (compound, recorded_number) VALUES
  ('O=C(Nc1cccc(Cn2c(=O)[nH]c3ccc(Oc4ncccn4)cc3c2=O)c1)c1cc(Cl)cc(Cl)c1', 77.9),
  ('C/C(=N\Nc1cccc(Cl)n1)c1ccccn1', 6.2),
  ('O=C(O)c1ccc(Br)nc1', 95.7),
  ('O=C(/C=C/c1c[nH]c2ccccc12)c1cc2ccccc2o1', 36.3),
  ('C[C@@H](c1ccc2c(c1)[nH]c1ccc(Cl)cc12)c1nc2ccc(Cl)cc2[nH]1', 16.6);

For every record below, what is its growth?
1. CC(=O)N1N=C(c2ccc(Cl)cc2)CC1c1cn(-c2ccccc2)nc1-c1ccc([N+](=O)[O-])cc1 (stereo unspecified)
2. Nc1ccc(S(=O)(=O)c2ccc(NO)cc2)cc1

[105, 91.8]

FYI, the data here is from PubChem BioAssay (NCI).
